Exercise: state measured pKa for each of the compounds provided.
assay: Ionisation constant, pKa of the compound
Type: physicochemical
Give bare numbers.

query.smiles: O=C(Nc1ccc(O)c(C(=O)O)c1)c1ccc(NC(=O)c2ccco2)cc1
measured.number: 2.58

# input for lookup
Request: Item "O=C(Nc1ccc(O)cc1C(=O)O)c1ccc(N2C(=O)c3ccccc3C2=O)cc1" : provide pKa
Result: 3.22

====

assay: Partition coefficient, log P of the compound
Assay type: physicochemical
setup.conditions: octanol/water
Exercise: state measured logP for each of the compounds provided.
One number for each entry.

query.smiles: O=C(Nc1ccc(O)c(C(=O)O)c1)c1ccc(NC(=O)c2ccco2)cc1
logP: 2.6

# input for lookup
Request: Item "O=C(Nc1ccc(O)cc1C(=O)O)c1ccc(N2C(=O)c3ccccc3C2=O)cc1" : provide logP
Result: 3.6

====

assay: Intrinsic aqueous solubility in 1.96% Soluplus solution
Format: physicochemical
outcome.measure: solubility (mg/mL)
Answers are plain numbers, in mg/mL.

Request: Item "O=C(Nc1ccc(O)c(C(=O)O)c1)c1ccc(NC(=O)c2ccco2)cc1" : provide solubility
Result: 0.76

====

assay: Tmax in ICR mouse at 5 mg/kg, ip by LC-MS/MS method
Type: ADME, organism-based
setup.conditions: in vivo
outcome.measure: Tmax (min)
One number for each entry, in min.

Request: Item "O=C(Nc1ccc(O)c(C(=O)O)c1)c1ccc(NC(=O)c2ccco2)cc1" : provide Tmax
Result: 10.2

====

Exercise: state measured fold change (FC) for each of the molecules provided.
study.target: UniProt:Q8N6T7
assay: Inhibition of SIRT6 in human BxPC3 cells assessed as increase in H3K9 acetylation by immunoblotting relative to untreated control
Format: cell-based
Set-up: concentration or dose not given beside the values
Answers are plain numbers.

Field: example entries. Status: answers known.
query.smiles: O=C(Nc1ccc(O)c(C(=O)O)c1)c1cccc(NC(=O)c2ccco2)c1
study.target: UniProt:Q8N6T7
fold change (FC): 2.1
--
query.smiles: O=C(Nc1ccc(C(=O)O)c(O)c1)c1ccc(NC(=O)c2ccco2)cc1
study.target: UniProt:Q8N6T7
fold change (FC): 2.5
--
query.smiles: O=C(Nc1ccc(O)cc1C(=O)O)c1ccc(N2C(=O)c3ccccc3C2=O)cc1
study.target: UniProt:Q8N6T7
fold change (FC): 0.9

Request: Item "O=C(Nc1ccc(O)c(C(=O)O)c1)c1ccc(NC(=O)c2ccco2)cc1" : provide fold change (FC)
Result: 1.9

====

assay: Intrinsic aqueous solubility in all polymers solutions
Assay type: physicochemical
outcome.measure: solubility

Request: Item "O=C(Nc1ccc(O)cc1C(=O)O)c1ccc(N2C(=O)c3ccccc3C2=O)cc1" : provide solubility
Result: 5 µg/mL

====

assay: Terminal half life in ICR mouse at 5 mg/kg, ip by LC-MS/MS method
Assay type: ADME, organism-based
setup.conditions: in vivo, read-out: beta t1/2 (converted)
outcome.measure: half-life (h)
One number for each entry, in h.

Request: Item "O=C(Nc1ccc(O)c(C(=O)O)c1)c1ccc(NC(=O)c2ccco2)cc1" : provide half-life
Result: 1.53

====

study.target: NAD-dependent protein deacylase sirtuin-6 (Homo sapiens, UniProt Q8N6T7)
Sequence (Q8N6T7 whole entry): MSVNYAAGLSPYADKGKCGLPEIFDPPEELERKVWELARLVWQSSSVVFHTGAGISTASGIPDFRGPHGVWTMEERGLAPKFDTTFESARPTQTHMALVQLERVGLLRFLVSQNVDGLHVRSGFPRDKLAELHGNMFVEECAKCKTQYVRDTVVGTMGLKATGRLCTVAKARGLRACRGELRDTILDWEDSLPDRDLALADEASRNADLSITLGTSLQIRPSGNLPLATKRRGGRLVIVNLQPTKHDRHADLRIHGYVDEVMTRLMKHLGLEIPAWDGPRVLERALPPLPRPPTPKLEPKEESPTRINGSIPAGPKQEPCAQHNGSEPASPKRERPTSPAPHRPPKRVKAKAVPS
assay: Inhibition of human recombinant SIRT6 assessed as reduction in NAD+-dependent deacetylase activity using Arg-His-Lys-Lys(epsilon-acetyl)-AMC substrate and NAD+ by fluorescence based assay
outcome.measure: IC50
Field note: include the unit after the figure.

Request: Please indicate recorded IC50 of "O=C(Nc1ccc(O)cc1C(=O)O)c1ccc(N2C(=O)c3ccccc3C2=O)cc1" measured with NAD-dependent protein deacylase sirtuin-6 (Homo sapiens, UniProt Q8N6T7).
Result: 20 µM
